Assign Post-emergence action against SETVI in % to each entry below.
test system: Setaria viridis (SETVI); assay: Post-emergence herbicidal action against SETVI; type: in vivo; details: dosage 320 g/ha
Your answer should be a plain number; it is taken to be in %.

Prompt line: Retrieve Post-emergence action against SETVI in % measured for `COC(=O)[C@@H](C)Oc1nn(-c2ncccc2F)c(-c2ccc(F)nc2)c1I` and print it.
Response line: 80

Prompt line: Please give the documented Post-emergence action against SETVI in % of `COC(=O)COc1nn(-c2ncccc2F)c(-c2ccc(F)nc2)c1Cl`
Response line: 90

Prompt line: Supply recorded Post-emergence action against SETVI in % for COC(=O)C(C)OC(=O)C(C)Oc1nn(-c2ccccn2)c(-c2ccc(F)nc2)c1Cl (stereo not drawn) here.
Response line: 90

Prompt line: Provide only the value of recorded Post-emergence action against SETVI in % for `O=C(O)COc1nn(-c2ccccn2)c(-c2ccc(F)nc2)c1F`
Response line: 90

Prompt line: Please supply the value of reported Post-emergence action against SETVI in % for the item `C[C@@H](Oc1nn(-c2ccccn2)c(-c2ccc(F)nc2)c1Br)C(=O)O`
Response line: 90

Prompt line: Recall and state the measured Post-emergence action against SETVI in % for `COC(=O)COc1nn(-c2ncccc2F)c(-c2cncc(F)c2)c1Br` .
Response line: 80

Prompt line: Please report the measured Post-emergence action against SETVI in % for `COC(=O)CCOC(=O)[C@@H](C)Oc1nn(-c2ccccn2)c(-c2cncc(F)c2)c1Cl`
Response line: 80

Prompt line: Name the recorded Post-emergence action against SETVI in % of the molecule listed here: `CCOC(=O)CNC(=O)COc1nn(-c2ncccc2F)c(-c2ccc(OC)nc2)c1Br`
Response line: 80

Prompt line: Look up Post-emergence action against SETVI in % of COC(=O)C(C)COC(=O)[C@@H](C)Oc1nn(-c2ccccn2)c(-c2cncc(F)c2)c1Cl (stereo partly drawn) and report it.
Response line: 80

Attribution: patent US20240041042A1
